Measurement type: pIC50
// scale note: pIC50 = -log10(conc_M); give the bare number

Q. Provide pIC50, tested on TEAD2 (Homo sapiens (Human), UniProt Q15562), for C=CC(=O)NCc1nn(-c2ccc(OC(F)(F)F)cc2)c2nccc(NC(=O)CO)c12 .
Sequence (Q15562 whole entry, species assumed): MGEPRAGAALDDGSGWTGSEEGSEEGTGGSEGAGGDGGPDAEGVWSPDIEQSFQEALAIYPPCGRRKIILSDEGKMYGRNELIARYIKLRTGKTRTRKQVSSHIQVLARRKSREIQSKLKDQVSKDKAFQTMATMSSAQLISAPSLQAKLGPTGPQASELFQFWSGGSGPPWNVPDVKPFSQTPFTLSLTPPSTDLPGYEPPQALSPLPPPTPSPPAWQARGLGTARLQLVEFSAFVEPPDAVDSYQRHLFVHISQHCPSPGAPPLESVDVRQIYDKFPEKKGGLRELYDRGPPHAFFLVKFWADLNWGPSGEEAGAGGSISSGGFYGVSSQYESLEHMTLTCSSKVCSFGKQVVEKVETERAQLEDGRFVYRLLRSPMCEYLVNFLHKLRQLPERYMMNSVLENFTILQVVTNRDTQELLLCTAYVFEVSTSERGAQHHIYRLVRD
A. 6.89

Q. Provide pIC50, tested on TEAD2 (Homo sapiens (Human), UniProt Q15562), for C=CC(=O)NCc1nn(-c2ccc(S(F)(F)(F)(F)F)cc2)c2cccc([C@@H](O)CO)c12 (single isomer, unassigned) .
A. 6.74

Q. Provide pIC50, tested on TEAD2 (Homo sapiens (Human), UniProt Q15562), for C=CC(=O)NCc1nn(-c2ccc(S(F)(F)(F)(F)F)cc2)c2cccc(C#N)c12 .
A. 4.30

Q. Provide pIC50, tested on TEAD2 (Homo sapiens (Human), UniProt Q15562), for C=CC(=O)NCc1nn(-c2ccc(S(F)(F)(F)(F)F)cc2)c2ncccc12 .
A. 6.48

Q. Provide pIC50, tested on TEAD2 (Homo sapiens (Human), UniProt Q15562), for C=C(F)C(=O)N1CC(c2nn(-c3ccc(OC(F)(F)F)cc3)c3nccc(N4CC[C@H](O)C4=O)c23)C1 .
A. 6.41

Q. Provide pIC50, tested on TEAD2 (Homo sapiens (Human), UniProt Q15562), for C=C(F)C(=O)N1CC(c2nn(-c3ccc(OC(F)(F)F)cc3)c3nccc(-c4c[nH]cn4)c23)C1 .
A. 6.00

Q. Provide pIC50, tested on TEAD2 (Homo sapiens (Human), UniProt Q15562), for C=CC(=O)NCc1nn(-c2ccc(OC(F)F)cc2)c2nccc(CO)c12 .
A. 6.14

Q. Provide pIC50, tested on TEAD2 (Homo sapiens (Human), UniProt Q15562), for C[C@H](O)/C=C/C(=O)N1CC(c2nn(-c3ccc(OC(F)(F)F)cc3)c3nccc(CO)c23)C1 .
A. 6.28

Q. Provide pIC50, tested on TEAD2 (Homo sapiens (Human), UniProt Q15562), for C=CC(=O)NCc1nn(-c2ccc(S(F)(F)(F)(F)F)cc2)c2cccc([C@H](O)CO)c12 (single isomer, unassigned) .
A. 7.07

Q. Provide pIC50, tested on TEAD2 (Homo sapiens (Human), UniProt Q15562), for C=CC(=O)NCc1nn(-c2ccc(OC(F)(F)F)cc2)c2nccc(-c3cnn(CCO)c3)c12 .
A. 6.77

Q. Provide pIC50, tested on TEAD2 (Homo sapiens (Human), UniProt Q15562), for O=C(/C=C\Cl)NCc1nn(-c2ccc(OC(F)(F)F)cc2)c2nccc([C@H](O)CO)c12 .
A. 7.44

Q. Provide pIC50, tested on TEAD2 (Homo sapiens (Human), UniProt Q15562), for C=C(F)C(=O)N1CC(c2nn(-c3ccc(OC(F)(F)F)cc3)c3nccc(-c4cn[nH]c4)c23)C1 .
A. 6.89

Q. Provide pIC50, tested on TEAD2 (Homo sapiens (Human), UniProt Q15562), for C=C(F)C(=O)N1CC(c2nn(-c3ccc(OC(F)(F)F)cc3)c3nccc(-c4cnn(C(C)C)c4)c23)C1 .
A. 6.07

Q. Provide pIC50, tested on TEAD2 (Homo sapiens (Human), UniProt Q15562), for O=C(/C=C/CO)N1CC(c2nn(-c3ccc(OC(F)(F)F)cc3)c3nccc(Cl)c23)C1 .
A. 7.77

Q. Provide pIC50, tested on TEAD2 (Homo sapiens (Human), UniProt Q15562), for O=C(/C=C/Cl)N1CC(c2nn(-c3ccc(OC(F)(F)F)cc3)c3nccc(CO)c23)C1 .
A. 8.46

----------
Assignment: determine reported pIC50 for the given compounds.
// scale note: pIC50 = -log10(conc_M); give the bare number

Q. Provide pIC50, tested on TEAD2 (Homo sapiens (Human), UniProt Q15562), for O=C(/C=C/CO)N1CC(c2nn(-c3ccc(OC(F)(F)F)cc3)c3nccc(-c4cn[nH]c4)c23)C1 [Compound 50] .
A. 7.12

Q. Provide pIC50, tested on TEAD2 (Homo sapiens (Human), UniProt Q15562), for C=CC(=O)NCc1nn(-c2ccc(OC(F)(F)F)cc2)c2nccc([C@@H](O)CO)c12 (stereo in doubt) [Compound 16] .
A. 6.92

Q. Provide pIC50, tested on TEAD2 (Homo sapiens (Human), UniProt Q15562), for C=CC(=O)NCc1nn(-c2ccc(OC(F)(F)F)cc2)c2nccc(N3CC(C)(O)C3)c12 [Compound 74] .
A. 6.85

Q. Provide pIC50, tested on TEAD2 (Homo sapiens (Human), UniProt Q15562), for C=CC(=O)NCc1nn(-c2ccc(OC(F)(F)F)cc2)c2nccc(N3CC[C@H](O)C3)c12 [Compound 46] .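 Also: TR-FRET competition assay with His-tagged TEAD protein and a biotinylated lipid pocket probe, compound pre-incubated 30 min or 4 h at room temperature, displacement lowers signal.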
A. 6.82

----------
Assignment: determine reported IC50 for the given molecules.
# Experimental system: TEAD1 (Homo sapiens (Human), UniProt P28347)
# Sequence (P28347 whole entry, species assumed): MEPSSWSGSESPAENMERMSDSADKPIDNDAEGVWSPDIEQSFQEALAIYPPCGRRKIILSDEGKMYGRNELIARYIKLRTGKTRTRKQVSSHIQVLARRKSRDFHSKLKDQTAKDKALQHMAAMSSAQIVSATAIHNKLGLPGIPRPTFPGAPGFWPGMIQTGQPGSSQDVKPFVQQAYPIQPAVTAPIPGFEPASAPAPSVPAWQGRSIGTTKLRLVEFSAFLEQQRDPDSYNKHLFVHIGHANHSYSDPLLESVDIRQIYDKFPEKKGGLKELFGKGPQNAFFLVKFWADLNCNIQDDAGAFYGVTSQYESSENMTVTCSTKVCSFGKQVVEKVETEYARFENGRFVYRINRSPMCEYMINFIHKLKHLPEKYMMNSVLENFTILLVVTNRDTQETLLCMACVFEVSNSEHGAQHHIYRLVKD
# Assay overview: TR-FRET lipid pocket probe competition assay (Lipid HTRF), TEAD1;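 also: His-tagged TEAD1 with biotinylated probe, detected via Europium anti-His and XL665 streptavidin, probe displacement lowers TR-FRET signal, IC50 from four-parameter nonlinear fit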
# Format: binding
# Protocol conditions: 4 hours pre-incubation; read-out: Lipid HTRF TEAD1 IC50
Respond numerically; units are nM and should not be typed.

Q. Look up IC50 of C=CC(=O)NCc1nn(-c2ccc(OC(F)(F)F)cc2)c2nccc(N3CC(OC)C3)c12 [Compound 118] and report it.
A. 16

Q. Look up IC50 of C=CC(=O)NCc1nn(-c2ccc(OC(F)(F)F)cc2)c2nccc([C@H]3COC(=O)O3)c12 [Compound 144] and report it.
A. 560

Q. Look up IC50 of C=CC(=O)N1CC(c2nn(-c3ccc(OC(F)(F)F)cc3)c3nccc([C@@H](O)CO)c23)C1 [Compound 114] and report it.
A. 14

----------
# Experimental system: UniProt P28347
# Assay overview: TR-FRET lipid pocket probe competition assay (Lipid HTRF), TEAD1
# Type: binding
# Protocol conditions: 4 hours pre-incubation; read-out: Lipid HTRF TEAD1 IC50
Assignment: determine reported IC50 for the given compounds.
Respond numerically; units are nM and should not be typed.

Q. Look up IC50 of C=CC(=O)NCc1nn(-c2ccc(OC(F)(F)F)cc2)c2cccc(CO)c12 and report it.
A. 23

Q. Look up IC50 of C=CC(=O)NCc1nn(-c2ccc(OC(F)(F)F)cc2)c2nccc(O[C@H]3C[C@H](O)C3)c12 and report it.
A. 100

Q. Look up IC50 of C/C=C(\C)C(=O)N1CC(c2nn(-c3ccc(OC(F)(F)F)cc3)c3nccc(CO)c23)C1 and report it.
A. 680

----------
# Experimental system: TEAD3 (Homo sapiens (Human))
# Sequence (Q99594 whole entry, species assumed): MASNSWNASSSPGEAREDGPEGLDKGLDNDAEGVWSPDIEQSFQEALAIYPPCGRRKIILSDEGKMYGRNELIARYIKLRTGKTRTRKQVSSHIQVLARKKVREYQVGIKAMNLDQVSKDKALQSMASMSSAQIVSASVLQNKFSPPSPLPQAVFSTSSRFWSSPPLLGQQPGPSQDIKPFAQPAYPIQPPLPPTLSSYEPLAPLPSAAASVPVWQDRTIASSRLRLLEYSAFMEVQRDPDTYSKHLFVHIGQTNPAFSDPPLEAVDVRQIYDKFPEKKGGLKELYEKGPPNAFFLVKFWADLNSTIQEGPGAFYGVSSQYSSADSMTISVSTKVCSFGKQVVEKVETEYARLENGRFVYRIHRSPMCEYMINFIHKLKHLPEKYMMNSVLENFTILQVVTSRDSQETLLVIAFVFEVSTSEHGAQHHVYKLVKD
# Assay overview: TR-FRET lipid pocket probe competition assay (Lipid HTRF), TEAD3
# Type: binding
# Protocol conditions: 4 hours pre-incubation; read-out: Lipid HTRF TEAD3 IC50
pIC50: −log10 of the molar value.
Short version: pIC50 at least 7 is 1, less is -1.

Q. Check the entry C[C@@H](O)/C=C/C(=O)N1CC(c2nn(-c3ccc(OC(F)(F)F)cc3)c3nccc(CO)c23)C1 [Compound 66] : does pIC50 equal or exceed 7?
A. -1

Q. Check the entry C=CC(=O)N1CC(c2nn(-c3ccc(OC(F)(F)F)cc3)c3nccc([C@H](O)CO)c23)C1 [Compound 113] : does pIC50 equal or exceed 7?
A. 1

Q. Check the entry C=CC(=O)NCc1nn(-c2ccc(OC(F)(F)F)cc2)c2nccc(N3CC(NC)C3)c12 [Compound 122] : does pIC50 equal or exceed 7?
A. -1

Q. Check the entry C=CC(=O)N(C)Cc1nn(-c2ccc(OC(F)(F)F)cc2)c2nccc([C@H](O)CO)c12 [Compound 139] : does pIC50 equal or exceed 7?
A. -1

Q. Check the entry C=C(F)C(=O)N1CC(c2nn(-c3ccc(OC(F)(F)F)cc3)c3nccc(N4CC(O)C4)c23)C1 [Compound 81] : does pIC50 equal or exceed 7?
A. -1

----------
# Experimental system: TEAD4 (Homo sapiens (Human))
# Sequence (Q15561 whole entry, species assumed): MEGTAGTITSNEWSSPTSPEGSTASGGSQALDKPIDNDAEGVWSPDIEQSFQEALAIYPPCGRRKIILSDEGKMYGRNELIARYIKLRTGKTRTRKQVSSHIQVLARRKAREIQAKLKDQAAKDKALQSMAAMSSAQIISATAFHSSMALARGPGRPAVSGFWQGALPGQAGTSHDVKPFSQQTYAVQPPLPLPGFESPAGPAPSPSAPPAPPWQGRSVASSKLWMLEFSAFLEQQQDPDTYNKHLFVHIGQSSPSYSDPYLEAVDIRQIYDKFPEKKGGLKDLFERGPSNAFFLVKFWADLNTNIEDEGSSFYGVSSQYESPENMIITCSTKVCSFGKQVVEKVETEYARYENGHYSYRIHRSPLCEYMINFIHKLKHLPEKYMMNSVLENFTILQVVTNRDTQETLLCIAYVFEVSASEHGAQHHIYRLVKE
# Assay overview: TR-FRET lipid pocket probe competition assay (Lipid HTRF), TEAD4;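 also: His-tagged TEAD4 with biotinylated lipid-pocket probe, read by Europium anti-His and XL665 streptavidin, where probe displacement lowers the TR-FRET signal, IC50 from a four-parameter fit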
# Format: binding
# Protocol conditions: 4 hours pre-incubation; read-out: Lipid HTRF TEAD4 IC50
Measurement type: log10(IC50) (log10 of the value in µM)
Record value = log10 of IC50 given in µM.

Q. Look up log10(IC50) of C=C(F)C(=O)N1CC(c2nn(-c3ccc(OC(F)(F)F)cc3)c3nccc(N4CC[C@H](O)C4=O)c23)C1 [Compound 82] and report it.
A. -2.32

Q. Look up log10(IC50) of C=CC(=O)NCc1nn(-c2ccc(OC(F)(F)F)cc2)c2nccc([C@H](O)COP(=O)(O)O)c12 [Compound 147] and report it.
A. 1.56

Q. Look up log10(IC50) of C=CC(=O)NCc1nn(-c2ccc(OC(F)(F)F)cc2)c2nccc(-c3cnn(CCO)c3)c12 [Compound 35] and report it.
A. -1.85

Q. Look up log10(IC50) of C=C(F)C(=O)N1CC(c2nn(-c3ccc(OC(F)(F)F)cc3)c3ccnc(N4CC(O)C4)c23)C1 [Compound 78] and report it.
A. -0.82

Q. Look up log10(IC50) of C=CC(=O)NCc1nn(-c2ccc(C(F)(F)F)cc2)c2nccc([C@@H](O)CO)c12 (stereo in doubt) [Compound 88] and report it.
A. -1.37

Q. Look up log10(IC50) of C=CC(=O)NCc1nn(-c2ccc(S(F)(F)(F)(F)F)cc2)c2ncccc12 [Compound 13] and report it.
A. -2.07

Q. Look up log10(IC50) of C=CC(=O)NCc1nn(-c2ccc(OC(F)(F)F)cc2)c2nccc(-c3cnn(CCS(C)(=O)=O)c3)c12 [Compound 168] and report it.
A. -1.31

Q. Look up log10(IC50) of C=C(F)C(=O)N1CC(c2nn(-c3ccc(OC(F)(F)F)cc3)c3nccc(NC(=O)CO)c23)C1 [Compound 42] and report it.
A. -1.60

Q. Look up log10(IC50) of C=CC(=O)NCc1nn(-c2ccc(OC(F)(F)F)cc2)c2nccc(N3CC(O)C3)c12 [Compound 106] and report it.
A. -2.17

Q. Look up log10(IC50) of C=CC(=O)NCc1nn(-c2ccc(OC(F)(F)F)cc2)c2nccc(N3CC(OC)C3)c12 [Compound 118] and report it.
A. -2.37

Hello, the source for this data is patent US12110276B2, in case you need it.
